# SYSTEM_NAME: UniProt P28223
# Sequence (P28223 whole entry): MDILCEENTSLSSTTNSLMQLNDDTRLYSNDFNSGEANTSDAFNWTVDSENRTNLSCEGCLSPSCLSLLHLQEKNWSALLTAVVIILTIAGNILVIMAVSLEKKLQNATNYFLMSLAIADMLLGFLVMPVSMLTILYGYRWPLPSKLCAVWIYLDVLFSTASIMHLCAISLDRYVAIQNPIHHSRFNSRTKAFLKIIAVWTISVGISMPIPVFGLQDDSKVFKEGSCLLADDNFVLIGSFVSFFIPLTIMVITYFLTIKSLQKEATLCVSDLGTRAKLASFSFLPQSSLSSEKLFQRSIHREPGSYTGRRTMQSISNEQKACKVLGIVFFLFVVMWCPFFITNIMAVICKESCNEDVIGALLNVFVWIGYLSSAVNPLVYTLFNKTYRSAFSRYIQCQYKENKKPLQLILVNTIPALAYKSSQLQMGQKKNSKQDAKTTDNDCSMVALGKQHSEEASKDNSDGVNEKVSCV
pKi: −log10 of the molar value.
Please enter met where pKi is greater than or equal to 7, and not met where it is lower.

# COMPOUND, SYSTEM_NAME, ANSWER_LABEL
rows = [
    ("Cc1ccc2c(ccn2CC(C)N)c1 (centres undefined)", "UniProt P28223", "not met"),
    ("Cc1ccc2ccn(CC(C)N)c2c1 (centres undefined)", "UniProt P28223", "not met"),
    ("CC(N)Cn1ccc2cc(Cl)c(F)cc21 (centres undefined)", "UniProt P28223", "met"),
]

Is pKi for CC(N)Cn1ccc2ccc(F)cc21 (centres undefined) at or above 7?
not met

Next compound up: CC(N)Cn1ccc2c1-c1cc(Cl)ccc1C2 (centres undefined)
not met

Next compound up: COc1ccc2c(c1)-c1c(ccn1CC(C)N)C2(C)C (centres undefined)
met

Next compound up: COc1cccc2c1-c1c(ccn1CC(C)N)C2 (centres undefined)
not met

Next compound up: CC(N)Cn1ccc2c1-c1cc(F)ccc1C2(C)C (centres undefined)
met
